assay: blockers of HIV-1 ZM109 envelope-driven cell-cell fusion – HeLa effector, CEM target cells, luciferase, cherry-pick, dose response (AID 652058); settings: HeLa Env/CEM cell fusion, 16-24 h; series mostly up to 35 µM
The whole screen tested about 1,200 compounds, of which about 870 (72%) were called active. Another 3% or so got no clear call; they are omitted. The set was probably picked from earlier hits. A selection follows. Potency and affinity values are given separately.
observable: activity change, negative = inhibition

Solved entries:
N#Cc1ccc(CN2CCN(C(=O)CNC(=O)Cc3cccc4ccccc34)CC2)cc1 | inactive
C[C@@H]1CN([C@H](C)CO)C(=O)c2cc(NS(=O)(=O)c3ccc(F)cc3)ccc2O[C@H]1CN(C)Cc1ccc(C(F)(F)F)cc1 | inactive
CCCOc1ccc(C(F)(F)F)cc1NC(=O)CCc1c(C)noc1C | inactive
Cc1nn(C)c(Cl)c1NC(=O)OCc1ccc(Cl)cc1Cl | inactive
COc1cccc(CNC(=O)C[C@@H]2C=C[C@H](NC(=O)C3CCC3)[C@H](CO)O2)c1 | inactive

In plain terms, "COc1ccccc1CNC(=O)C[C@H]1C[C@@H]2c3cc(NC(=O)c4cccnc4)ccc3O[C@@H]2[C@@H](CO)O1" has a documented activity change, negative = inhibition of inactive

The reported activity change, negative = inhibition of the compound "Nc1cc2c(cc1Br)[nH]c(=O)c1ccccc12" was inactive

Query "O=C(C[C@@H]1C[C@@H]2c3cc(NC(=O)c4ccc5c(c4)OCO5)ccc3O[C@@H]2[C@@H](CO)O1)NCc1ccc(Oc2ccccc2)cc1" yields activity change, negative = inhibition of inactive

Record "O=C(C[C@@H]1C[C@@H]2c3cc(NS(=O)(=O)c4ccc(F)cc4)ccc3O[C@@H]2[C@H](CO)O1)NCc1ccccc1F" , field activity change, negative = inhibition: inactive
